- condition_parameters: mouse, in vivo
Residues, ends and D or L forms follow the SMILES beside them. Groups on a side chain read outwards from the residue. *: point of attachment. Biotin = O=C1N[C@H]2[C@H](CS[C@H]2CCCCC(=O)*)N1; X1 = CN1C(=O)C[C@H](C(=O)*)[C@H]1c1cccnc1; PEG6 = NCCOCCOCCOCCOCCOCCOCCC(=O)O
measured_property: half-life

The recorded half-life for CN1C(=O)C[C@H](C(=O)NCCCC[C@H](NC(=O)[C@H](CO)NC(=O)CNC(=O)CNC(=O)CNC(=O)CNC(=O)[C@H](CCCCNC(=O)CCOCCOCCOCCOCCOCCOCCNC(=O)CCCC[C@@H]2SC[C@@H]3NC(=O)N[C@@H]32)NC(=O)[C@H](CO)NC(=O)CNC(=O)CNC(=O)CNC(=O)CNC(=O)[C@H]2CC(=O)N(C)[C@@H]2c2cccnc2)C(=O)O)[C@H]1c1cccnc1 [cotinine-biotin] (X1-GGGGSK([PEG6-Biotin])GGGGSK(X1)-OH) is 33.4 min
